System: E. coli (wild-type) BW25113
recordedEndpoint: MIC (µg/mL)

[[record]]
compound = "CN[C@H](CC(C)C)C(=O)N[C@H]1C(=O)N[C@@H](CC(N)=O)C(=O)N[C@H]2C(=O)N[C@H]3C(=O)N[C@H](C(=O)N[C@H](C(=O)NCCCCCCCCNC(=O)c4ccc(O)c(O)c4Cl)c4cc(O)cc(O)c4-c4cc3ccc4O)[C@H](O)c3ccc(c(Cl)c3)Oc3cc2cc(c3O[C@@H]2O[C@H](CO)C(O)C(O)[C@H]2O[C@H]2CC(C)(N)[C@H](O)[C@H](C)O2)Oc2ccc(cc2Cl)[C@H]1O (stereo partly drawn) [Compound 9]"
valuemeasured = 64

[[record]]
compound = "CNC(CC(C)C)C(=O)N[C@H]1C(=O)N[C@@H](CC(N)=O)C(=O)N[C@H]2C(=O)N[C@H]3C(=O)N[C@H](C(=O)N[C@@H](C(=O)NCCOCCNC(=O)c4ccc(O)c(O)c4Cl)c4cc(O)cc(O)c4-c4cc3ccc4O)[C@H](O)c3ccc(c(Cl)c3)Oc3cc2cc(c3OC2O[C@H](CO)C(O)C(O)[C@H]2O[C@H]2CC(C)(N)[C@H](O)C(C)O2)Oc2ccc(cc2Cl)[C@H]1O (stereo in doubt) [Compound 10]"
valuemeasured = 16

[[record]]
compound = "CNC(CC(C)C)C(=O)N[C@H]1C(=O)N[C@@H](CC(N)=O)C(=O)N[C@H]2C(=O)N[C@H]3C(=O)N[C@H](C(=O)N[C@@H](C(=O)NCCNC(=O)c4ccc(O)c(O)c4Cl)c4cc(O)cc(O)c4-c4cc3ccc4O)[C@H](O)c3ccc(c(Cl)c3)Oc3cc2cc(c3OC2O[C@H](CO)C(O)C(O)[C@H]2O[C@H]2CC(C)(N)[C@H](O)C(C)O2)Oc2ccc(cc2Cl)[C@H]1O (stereo in doubt) [Compound 3]"
valuemeasured = 16


---

Read-out record for A. baumannii JMI #1186154: MIC
recordedEndpoint: MIC (mg/L)

[[record]]
compound = "CNC(CC(C)C)C(=O)NC1C(=O)NC(CC(N)=O)C(=O)NC2C(=O)NC3C(=O)NC(C(=O)N[C@H](C(=O)NCCCNC(=O)c4cc(=O)c(O)c[nH]4)c4cc(O)cc(O)c4-c4cc3ccc4O)C(O)c3ccc(c(Cl)c3)Oc3cc2cc(c3OC2OC(CO)C(O)C(O)C2OC2CC(C)(N)C(O)C(C)O2)Oc2ccc(cc2Cl)C1O (stereo in doubt)"
recordedendpoint = "MIC"
valuemeasured = 32

[[record]]
compound = "CN[C@H](CC(C)C)C(=O)N[C@H]1C(=O)N[C@@H](CC(N)=O)C(=O)N[C@H]2C(=O)N[C@H]3C(=O)N[C@H](C(=O)N[C@H](C(=O)NCCCNC(=O)c4cccc(O)c4O)c4cc(O)cc(O)c4-c4cc3ccc4O)[C@H](O)c3ccc(c(Cl)c3)Oc3cc2cc(c3O[C@@H]2O[C@H](CO)C(O)C(O)[C@H]2O[C@H]2CC(C)(N)[C@H](O)[C@H](C)O2)Oc2ccc(cc2Cl)[C@H]1O (stereo partly drawn)"
recordedendpoint = "MIC"
valuemeasured = 4

[[record]]
compound = "CC(C)C[C@H](C(=O)N[C@H]1C(=O)N[C@@H](CC(N)=O)C(=O)N[C@H]2C(=O)N[C@H]3C(=O)N[C@H](C(=O)N[C@H](C(=O)O)c4cc(O)cc(O)c4-c4cc3ccc4O)[C@H](O)c3ccc(c(Cl)c3)Oc3cc2cc(c3O[C@@H]2O[C@H](CO)C(O)C(O)[C@H]2O[C@H]2CC(C)(N)[C@H](O)[C@H](C)O2)Oc2ccc(cc2Cl)[C@H]1O)N(C)CCNC(=O)c1ccc(O)c(O)c1Cl (stereo partly drawn)"
recordedendpoint = "MIC"
valuemeasured = 32


---

Read-out record for A. baumannii JMI #1186154: MIC
recordedEndpoint: MIC (µg/mL)

[[record]]
molecule = "CN[C@H](CC(C)C)C(=O)N[C@H]1C(=O)N[C@@H](CC(N)=O)C(=O)N[C@H]2C(=O)N[C@H]3C(=O)N[C@H](C(=O)N[C@H](C(=O)NCCCCCCNC(=O)c4ccc(O)c(O)c4Cl)c4cc(O)cc(O)c4-c4cc3ccc4O)[C@H](O)c3ccc(c(Cl)c3)Oc3cc2cc(c3O[C@@H]2O[C@H](CO)C(O)C(O)[C@H]2O[C@H]2CC(C)(N)[C@H](O)[C@H](C)O2)Oc2ccc(cc2Cl)[C@H]1O (some centres unmarked)"
valuemeasured = 1

[[record]]
molecule = "CN[C@H](CC(C)C)C(=O)N[C@H]1C(=O)N[C@@H](CC(N)=O)C(=O)N[C@H]2C(=O)N[C@H]3C(=O)N[C@H](C(=O)N[C@H](C(=O)NCCCCCCCNC(=O)c4ccc(O)c(O)c4Cl)c4cc(O)cc(O)c4-c4cc3ccc4O)[C@H](O)c3ccc(c(Cl)c3)Oc3cc2cc(c3O[C@@H]2O[C@H](CO)C(O)C(O)[C@H]2O[C@H]2CC(C)(N)[C@H](O)[C@H](C)O2)Oc2ccc(cc2Cl)[C@H]1O (some centres unmarked)"
valuemeasured = 2


---

Test system: A. baumannii JMI #1186154
recordedEndpoint: MIC (mg/L)

[[record]]
compound = "CNC(CC(C)C)C(=O)NC1C(=O)NC(CC(N)=O)C(=O)NC2C(=O)NC3C(=O)NC(C(=O)N[C@H](C(=O)O)c4cc(O)c(CNCCCNC(=O)c5ccc(O)c(O)c5Cl)c(O)c4-c4cc3ccc4O)C(O)c3ccc(c(Cl)c3)Oc3cc2cc(c3OC2OC(CO)C(O)C(O)C2OC2CC(C)(N)C(O)C(C)O2)Oc2ccc(cc2Cl)C1O (some centres unmarked)"
unittag = "mg/L"
valuemeasured = 4

[[record]]
compound = "CN[C@H](CC(C)C)C(=O)N[C@H]1C(=O)N[C@@H](CC(N)=O)C(=O)N[C@H]2C(=O)N[C@H]3C(=O)N[C@H](C(=O)N[C@H](C(=O)NCCCCNC(=O)c4cccc(O)c4O)c4cc(O)cc(O)c4-c4cc3ccc4O)[C@H](O)c3ccc(c(Cl)c3)Oc3cc2cc(c3O[C@@H]2O[C@H](CO)C(O)C(O)[C@H]2O[C@H]2CC(C)(N)[C@H](O)[C@H](C)O2)Oc2ccc(cc2Cl)[C@H]1O (some centres unmarked)"
unittag = "mg/L"
valuemeasured = 4

[[record]]
compound = "CNC(CC(C)C)C(=O)NC1C(=O)NC(CC(N)=O)C(=O)NC2C(=O)NC3C(=O)NC(C(=O)N[C@H](C(=O)O)c4cc(O)cc(O)c4-c4cc3ccc4O)C(O)c3ccc(c(Cl)c3)Oc3cc2cc(c3OC2OC(CO)C(O)C(O)C2OC2CC(C)(NCCNC(=O)c3ccc(O)c(O)c3Cl)C(O)C(C)O2)Oc2ccc(cc2Cl)C1O (some centres unmarked)"
unittag = "mg/L"
valuemeasured = 32

[[record]]
compound = "CC(C)CC(C(=O)NC1C(=O)NC(CC(N)=O)C(=O)NC2C(=O)NC3C(=O)NC(C(=O)N[C@H](C(=O)O)c4cc(O)cc(O)c4-c4cc3ccc4O)C(O)c3ccc(c(Cl)c3)Oc3cc2cc(c3OC2OC(CO)C(O)C(O)C2OC2CC(C)(N)C(O)C(C)O2)Oc2ccc(cc2Cl)C1O)N(C)CCCc1cn(CCCNC(=O)c2ccc(O)c(O)c2Cl)nn1 (some centres unmarked)"
unittag = "mg/L"
valuemeasured = 32

[[record]]
compound = "CNC(CC(C)C)C(=O)NC1C(=O)NC(CC(N)=O)C(=O)NC2C(=O)NC3C(=O)NC(C(=O)N[C@H](C(=O)O)c4cc(O)c(CNCCNC(=O)c5cccc(O)c5O)c(O)c4-c4cc3ccc4O)C(O)c3ccc(c(Cl)c3)Oc3cc2cc(c3OC2OC(CO)C(O)C(O)C2OC2CC(C)(N)C(O)C(C)O2)Oc2ccc(cc2Cl)C1O (some centres unmarked)"
unittag = "mg/L"
valuemeasured = 8

[[record]]
compound = "CNC(CC(C)C)C(=O)N[C@H]1C(=O)N[C@@H](CC(N)=O)C(=O)N[C@H]2C(=O)N[C@H]3C(=O)N[C@H](C(=O)N[C@@H](C(=O)NCc4cn(CCNC(=O)c5ccc(O)c(O)c5Cl)nn4)c4cc(O)cc(O)c4-c4cc3ccc4O)[C@H](O)c3ccc(c(Cl)c3)Oc3cc2cc(c3OC2O[C@H](CO)C(O)C(O)[C@H]2O[C@H]2CC(C)(N)[C@H](O)C(C)O2)Oc2ccc(cc2Cl)[C@H]1O (some centres unmarked)"
unittag = "mg/L"
valuemeasured = 1

[[record]]
compound = "CN[C@H](CC(C)C)C(=O)N[C@H]1C(=O)N[C@@H](CC(N)=O)C(=O)N[C@H]2C(=O)N[C@H]3C(=O)N[C@H](C(=O)N[C@H](C(=O)NCCOCCOCCNS(=O)(=O)c4ccc(O)c(O)c4)c4cc(O)cc(O)c4-c4cc3ccc4O)[C@H](O)c3ccc(c(Cl)c3)Oc3cc2cc(c3O[C@@H]2O[C@H](CO)C(O)C(O)[C@H]2O[C@H]2CC(C)(N)[C@H](O)[C@H](C)O2)Oc2ccc(cc2Cl)[C@H]1O (stereo in doubt)"
unittag = "mg/L"
valuemeasured = 1

[[record]]
compound = "CN[C@H](CC(C)C)C(=O)N[C@H]1C(=O)N[C@@H](CC(N)=O)C(=O)N[C@H]2C(=O)N[C@H]3C(=O)N[C@H](C(=O)N[C@H](C(=O)NCCCNS(=O)(=O)c4ccc(O)c(O)c4)c4cc(O)cc(O)c4-c4cc3ccc4O)[C@H](O)c3ccc(c(Cl)c3)Oc3cc2cc(c3O[C@@H]2O[C@H](CO)C(O)C(O)[C@H]2O[C@H]2CC(C)(N)[C@H](O)[C@H](C)O2)Oc2ccc(cc2Cl)[C@H]1O (some centres unmarked)"
unittag = "mg/L"
valuemeasured = 4

[[record]]
compound = "CNC(CC(C)C)C(=O)N[C@H]1C(=O)N[C@@H](CC(N)=O)C(=O)N[C@H]2C(=O)N[C@H]3C(=O)N[C@H](C(=O)N[C@@H](C(=O)NCCNC(=O)c4ccc(O)c(O)c4Cl)c4cc(O)cc(O)c4-c4cc3ccc4O)[C@H](O)c3ccc(c(Cl)c3)Oc3cc2cc(c3OC2O[C@H](CO)C(O)C(O)[C@H]2O[C@H]2CC(C)(N)[C@H](O)C(C)O2)Oc2ccc(cc2Cl)[C@H]1O (stereo in doubt)"
unittag = "mg/L"
valuemeasured = 2

[[record]]
compound = "CN[C@H](CC(C)C)C(=O)N[C@H]1C(=O)N[C@@H](CC(N)=O)C(=O)N[C@H]2C(=O)N[C@H]3C(=O)N[C@H](C(=O)N[C@H](C(=O)NCCCCN4C(=O)c5cc(O)c(O)cc5C4=O)c4cc(O)cc(O)c4-c4cc3ccc4O)[C@H](O)c3ccc(c(Cl)c3)Oc3cc2cc(c3O[C@@H]2O[C@H](CO)C(O)C(O)[C@H]2O[C@H]2CC(C)(N)[C@H](O)[C@H](C)O2)Oc2ccc(cc2Cl)[C@H]1O (some centres unmarked)"
unittag = "mg/L"
valuemeasured = 32

[[record]]
compound = "CNC(CC(C)C)C(=O)NC1C(=O)NC(CC(N)=O)C(=O)NC2C(=O)NC3C(=O)NC(C(=O)N[C@H](C(=O)O)c4cc(O)c(CNCc5cn(CCCNC(=O)c6ccc(O)c(O)c6Cl)nn5)c(O)c4-c4cc3ccc4O)C(O)c3ccc(c(Cl)c3)Oc3cc2cc(c3OC2OC(CO)C(O)C(O)C2OC2CC(C)(N)C(O)C(C)O2)Oc2ccc(cc2Cl)C1O (some centres unmarked)"
unittag = "mg/L"
valuemeasured = 16

